# RUN PARAMETERS: 308.15 K; 101 kPa; Liquid; Vibrating tube method
Record 1 whenever mass density is at 900 kg/m3 or higher; record 0 when lower.

* C=C[Si]1(C)O[Si](C)(C=C)O[Si](C)(C=C)O[Si](C)(C=C)O1 (stereo not given) | 1
* Cc1ccc(C)cc1 | 0
* CCc1ccccc1 | 0
* Cc1cccc(C)c1 | 0
* Cc1ccccc1C | 0

* * *

# ASSAY OVERVIEW: refractive index (Na D-line) (dimensionless); φn = volume fraction of the nth substance listed
# RUN PARAMETERS: 318.15 K; 101 kPa; Liquid; Standard Abbe refractometry; φ2 = 0
This section presents compounds with their documented refractive index values.
REPORTED PROPERTY: refractive index

• Cc1cccc(C)c1 [1,3-dimethylbenzene] + C=C[Si]1(C)O[Si](C)(C=C)O[Si](C)(C=C)O[Si](C)(C=C)O1 = 1.48355
• Cc1ccccc1C [1,2-dimethylbenzene] + C=C[Si]1(C)O[Si](C)(C=C)O[Si](C)(C=C)O[Si](C)(C=C)O1 = 1.49201
• CCc1ccccc1 [ethylbenzene] + C=C[Si]1(C)O[Si](C)(C=C)O[Si](C)(C=C)O[Si](C)(C=C)O1 = 1.48202
• Cc1ccc(C)cc1 [1,4-dimethylbenzene] + C=C[Si]1(C)O[Si](C)(C=C)O[Si](C)(C=C)O[Si](C)(C=C)O1 = 1.48202

* * *

# ASSAY OVERVIEW: refractive index (Na D-line) (dimensionless)
# RUN PARAMETERS: 318.15 K; 101.33 kPa; Liquid; Standard Abbe refractometry
± gives the expanded uncertainty stated by the source.
REPORTED PROPERTY: refractive index

* Cc1ccccc1C [1,2-dimethylbenzene] | 1.49201 ± 0.00031
* CCc1ccccc1 [ethylbenzene] | 1.48202 ± 0.00031
* Cc1ccc(C)cc1 [1,4-dimethylbenzene] | 1.48202 ± 0.00031
* Cc1cccc(C)c1 [1,3-dimethylbenzene] | 1.48355 ± 0.00031
* C=C[Si]1(C)O[Si](C)(C=C)O[Si](C)(C=C)O[Si](C)(C=C)O1 (stereo not given) [2,4,6,8-tetramethyl-2,4,6,8-tetravinylcycloterasiloxane] | 1.42257 ± 0.00033

* * *

Reported mass density values are given for each entry in this list.
# RUN PARAMETERS: 288.15 K; 101 kPa; Liquid; Vibrating tube method
REPORTED PROPERTY: mass density (kg/m3)

• Cc1ccccc1C = 884.07
• Cc1cccc(C)c1 = 868.39
• C=C[Si]1(C)O[Si](C)(C=C)O[Si](C)(C=C)O[Si](C)(C=C)O1 (stereo not given) = 992.74
• Cc1ccc(C)cc1 = 865.3
• CCc1ccccc1 = 871.31

* * *

# ASSAY OVERVIEW: refractive index (Na D-line) (dimensionless)
# RUN PARAMETERS: 308.15 K; 101.33 kPa; Liquid; Standard Abbe refractometry
REPORTED PROPERTY: refractive index

* CCc1ccccc1 | 1.48747
* C=C[Si]1(C)O[Si](C)(C=C)O[Si](C)(C=C)O[Si](C)(C=C)O1 (stereo not given) | 1.4273
* Cc1ccc(C)cc1 | 1.48743
* Cc1cccc(C)c1 | 1.48894
* Cc1ccccc1C | 1.49724
